# TARGET SYSTEM: HIV protease (Human immunodeficiency virus type 1 group M subtype B, UniProt P04585)
# Construct: HIV protease is diluted in the assay buffer to a final enzyme concentration of 12.3 nanomolar, based on a molecular weight of 10,780
# TEST SUMMARY: biochemical
# EXPERIMENTAL CONDITIONS: Table 15A, first part
ASSAY READOUT: IC50 (nM)
Please give a number only; it is taken to be in nM.

Task: Lab note: need IC50 with HIV protease (Human immunodeficiency virus type 1 group M subtype B, UniProt P04585) for entry CC(C)CCN(C[C@@H](O)[C@H](Cc1ccccc1)NC(=O)[C@H](CC(N)=O)NC(=O)c1ccc2ccccc2n1)S(C)(=O)=O [Table 15A Entry 4] , please look it up.
Result: 27

Task: Form field: IC50 recorded for CC(C)CCN(C[C@@H](O)[C@H](Cc1ccccc1)NC(=O)OCc1ccccc1)S(=O)(=O)c1ccccc1 [drawing 314] with HIV protease (Human immunodeficiency virus type 1 group M subtype B, UniProt P04585) (enter value)
Result: 16

###

# TEST SUMMARY: Intrinsic toxicity of test compound in CEM cells without virus (MTT)
# Type: cell-based
# EXPERIMENTAL CONDITIONS: human, Table 16, read-out: TD50 (the source's name)
ASSAY READOUT: CC50 (nM)
Respond with the bare value in nM.

Task: Name the reported CC50 value associated with the compound CC(C)CCN(C[C@@H](O)[C@H](Cc1ccccc1)NC(=O)[C@@H](NC(=O)CN(C)C)C(C)(C)C)S(C)(=O)=O [Table 16 Entry 6]
Result: 425

Task: Field request: CC50 | item: CNC(=O)C[C@H](NC(=O)c1ccc2ccccc2n1)C(=O)N[C@@H](Cc1ccccc1)[C@H](O)CN(CCC(C)C)S(=O)(=O)c1ccccc1 [Table 16 Entry 7]
Result: 39

Task: Fill in the blank: the reported CC50 of CCC(C)[C@H](NC(=O)CN(C)C)C(=O)N[C@@H](Cc1ccccc1)[C@H](O)CN(CCC(C)C)S(=O)(=O)c1ccccc1 (stereo partly shown) [Table 16 Entry 14] is ____.
Result: 55000

Task: Dear colleague, I am looking for the recorded CC50 of the following compound: CC(C)CCN(C[C@@H](O)[C@H](Cc1ccccc1)NC(=O)c1ccccc1)S(=O)(=O)c1ccccc1 [Table 16 Entry 8]
Result: 24

###

Please respond with reported IC50 for every item in the list.
# TARGET SYSTEM: HIV protease (Human immunodeficiency virus type 1 group M subtype B)
# Construct: HIV protease is diluted in the assay buffer to a final enzyme concentration of 12.3 nanomolar, based on a molecular weight of 10,780
# TEST SUMMARY: biochemical
# EXPERIMENTAL CONDITIONS: Table 5B
# Method: The enzyme method is described below. […] The positive control is MVT-101 (Miller, M. et al, Science, 246, 1149 (1989)] The assay conditions are as follows: Assay buffer: 20 mM sodium phosphate, pH 6.4 The above described substrate is dissolved in DMSO, then diluted 10 fold in assay buffer. […] The final concentration of DMSO is 14% and the final concentration of glycerol is 18%. […] The increase in fluorescence is monitored at 4 time points (0, 8, 16 and 24 minutes) at ambient temperature. […]
Numeric answer only, unit nM assumed.

Task: Entry COc1ccc(S(=O)(=O)N(CC(C)C)CC(O)C(Cc2ccccc2)NC(=O)c2ccc3[nH]ccc3c2)cc1 (centres unmarked) has what IC50?
Result: 26

Task: What value of IC50 has been reported for the following compound? COc1ccc(S(=O)(=O)N(CC(C)C)CC(O)C(Cc2ccccc2)NC(=O)c2ccccc2OC)cc1 (centres unmarked)
Result: 190

###

Consider the following compounds; for each one, report its inhibition at 10 µM.
# TARGET SYSTEM: HIV protease (Human immunodeficiency virus type 1 group M subtype B)
# Construct: HIV protease is diluted in the assay buffer to a final enzyme concentration of 12.3 nanomolar, based on a molecular weight of 10,780
# TEST SUMMARY: biochemical
# EXPERIMENTAL CONDITIONS: Table 15A, @ 10 uM; read-out: % inhib
// return numeric value only (unit: %, not printed)

Task: Can you share its inhibition at 10 µM? I mean this compound: CC(C)CCN(C[C@@H](O)[C@H](Cc1ccccc1)NC(=O)OCc1ccccc1)S(=O)(=O)c1ccccc1[N+](=O)[O-] [Table 1a Entry 3]
Result: 79

Task: Requested field: inhibition at 10 µM. Item: CC(C)CCN(C[C@@H](O)[C@H](Cc1ccccc1)NC(=O)OCc1ccccc1)S(=O)(=O)Cc1ccccc1 [Table 1a Entry 6]
Result: 36

Task: Name the reported inhibition at 10 µM value associated with the compound CC(C)CCN(C[C@@H](O)[C@H](Cc1ccccc1)NC(=O)OCc1ccccc1)S(=O)(=O)CCl [Table 1A Entry 52]
Result: 81

Task: GET /values?readout=inhibition at 10 µM&item= CC(C)CCN(C[C@@H](O)[C@H](Cc1ccccc1)NC(=O)OCc1ccccc1)S(=O)(=O)C(F)(F)F [Table 1A Entry 50]
Result: 89

Task: What does the record list as inhibition at 10 µM for CC(C)CN(C[C@@H](O)[C@H](Cc1ccccc1)NC(=O)OCc1ccccc1)S(C)(=O)=O [Table 1A Entry 51] ?
Result: 76

Task: # query: inhibition at 10 µM of entry CC(C)CCN(C[C@@H](O)[C@H](Cc1ccccc1)NC(=O)OCc1ccccc1)S(C)(=O)=O [Table 1A Entry 41]
Result: 74

###

# TARGET SYSTEM: HIV protease (Human immunodeficiency virus type 1 group M subtype B, UniProt P04585)
# Construct: HIV protease is diluted in the assay buffer to a final enzyme concentration of 12.3 nanomolar, based on a molecular weight of 10,780
# TEST SUMMARY: biochemical
# EXPERIMENTAL CONDITIONS: Table 15A, @ 1 uM; read-out: % inhib
Can you tell me inhibition at 1 µM for the items I'm about to list?
Dear colleague, please return just the value in %, with no unit written.

Task: // inhibition at 1 µM lookup, key: CC(C)CCN(C[C@@H](O)[C@H](Cc1ccccc1)NC(=O)OCc1ccccc1)S(=O)(=O)c1ccccc1[N+](=O)[O-] [Table 1a Entry 3]
Result: 38

Task: Recorded inhibition at 1 µM of CC(C)CCN(C[C@@H](O)[C@H](Cc1ccccc1)NC(=O)C(NC(=O)CN(C)C)C(C)(C)C)S(C)(=O)=O (stereo partly drawn) [Table 3 Entry 2] , please.
Result: 90

Task: Bench note: what inhibition at 1 µM did CC(C)CCN(C[C@@H](O)[C@H](Cc1ccccc1)NC(=O)OCc1ccccc1)S(=O)(=O)C(F)(F)F [Table 1A Entry 50] show?
Result: 42

Task: Entry under review: CC(C)CN(C[C@@H](O)[C@H](Cc1ccccc1)NC(=O)OCc1ccccc1)S(C)(=O)=O [Table 1A Entry 51] . Reported inhibition at 1 µM?
Result: 31

Task: May I ask what inhibition at 1 µM has been recorded for CC(C)CCN(C[C@@H](O)[C@H](Cc1ccccc1)NC(=O)OCc1ccccc1)S(=O)(=O)CCl [Table 1A Entry 52] ?
Result: 39

Task: Which inhibition at 1 µM value belongs to CC(C)CCN(C[C@@H](O)[C@H](Cc1ccccc1)NC(=O)OCc1ccccc1)S(C)(=O)=O [Table 1A Entry 41] ?
Result: 24

###

# TARGET SYSTEM: HIV protease (Human immunodeficiency virus type 1 group M subtype B)
# Construct: HIV protease is diluted in the assay buffer to a final enzyme concentration of 12.3 nanomolar, based on a molecular weight of 10,780
# TEST SUMMARY: biochemical
# EXPERIMENTAL CONDITIONS: Table 16; enzyme assay
Kindly state IC50 for each of the entries shown.
Expressed in µM, but write only the number.

Task: Query: IC50; subject: CCc1ccccc1C(=O)N[C@@H](Cc1ccccc1)[C@H](O)CN(CC(C)C)S(=O)(=O)c1ccc(OC)cc1 [Table 16 Entry 31]
Result: 0.01

Task: Fill blank: measured IC50 of the molecule CC(C)CCN(C[C@@H](O)[C@H](Cc1ccccc1)NC(=O)OCc1ccccc1)S(=O)(=O)c1ccccc1 [drawing 326] is ____.
Result: 0.016

Task: State the recorded IC50 for this entry: COc1ccc(S(=O)(=O)N(CC(C)C)C[C@@H](O)[C@H](Cc2ccccc2)NC(=O)c2ccccc2Cl)cc1 [Table 16 Entry 30]
Result: 0.006
